Provide the recorded apparent KD of K4 kissing-loop reporter for the entries that follow.
# Tested on: K4 kissing-loop RNA reporter;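 further: bound reporter read as fluorescence of individual clusters on recovered sequencing chips by microscopy, with normalized cluster intensities fitted with a binding model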
# EXPERIMENT DESCRIPTION: apparent KD of K4 kissing-loop reporter; higher = weaker reporter binding
# CONDITION SET: Eterna round: R107; input ligand: tryptophan 2.4 mM
Please respond with the number in µM and leave the unit unwritten.

Using the record for CGCUUAGUGAUGUUUGAUUUGGCGCAUGCAGAGGAUAUAGGGUGCUUUAGAAGGCUGAGGAGUGCGCCGAGUGAUGUUCGGCGCU [Exclusion FMN A GF12] , report its apparent KD of K4 kissing-loop reporter.
0.166

Using the record for AACUGCUAAGAGGUUAAGCACGUCAUUAUGAAGGAUAUAGAAUUCACUAGAAGGUCAUGUGCCCUGAGUGAUGUUCAGAUAGGCG [theeternabot_sameState_KL_FMN_A_25] , report its apparent KD of K4 kissing-loop reporter.
0.336

Using the record for GAGCGGUAGAGGCUACCGCUAUUCUGAGAAGGAGCGCAGAUGACUGCAGGUAGGUCGCUUAGAGCUUGCAGUGAUGUUGCAAGUU [Inzarier] , report its apparent KD of K4 kissing-loop reporter.
0.181

Using the record for UAGGAGUGAUGUUCCAUGUCUUGAGCCGAAGGAGCGCCUUUCUAGGCAGGUAGGUCGCGGCAGAAGGUACCAGUGAUGUUGGAAA [Same State Arginine A GF8] , report its apparent KD of K4 kissing-loop reporter.
0.279

Using the record for AGACCACAAAGUGGUCAGUGUUCGCUGCGGCGAGGACCGGUACGGCCGCCACUCGCGAGUGAUGUUCGCGAGCGCAGCGAACACA [Omei KL Tryp A Exc A v3] , report its apparent KD of K4 kissing-loop reporter.
0.0885

Using the record for GGCCGGAAGGCGAGCGCUCCCACUCCGGAAGGAGCGCCCGUAAGGGCAGGUAGGUCGCCGGAGUGAUGUUCCGGUGGAGGGCUCG [#2 Exclusion - Arginine A Attempt #21 (Inspired by Omei)] , report its apparent KD of K4 kissing-loop reporter.
0.186

Using the record for GUCCAUGUCCUCAUUCGUGCACUGGACACCAAGGAUAUGUUUAUGGACAGAAGGUGGUUGGGUCAGUGAUGUUGAUAUAAUUAGU [theeternabot_exclusion_KL_FMN_A_24] , report its apparent KD of K4 kissing-loop reporter.
0.194

Using the record for `GGUAGCAUGGCGGCCGCCACUUUUUUAGAUACCUACACAGAAAGCAGUGAUGUUGCUUGGUGGUAAAGGACCGGGCCAUGCUACC` , report its apparent KD of K4 kissing-loop reporter.
0.105

Using the record for GGGAGUAGUGCGGCCGCCACUGAGAAAGAAGAAGAAUAUAGUGAUGUUAUAUAGGAAUAAAAGAACAGGACCGGGCAUUAGAUUU [SSTRyptB.T] , report its apparent KD of K4 kissing-loop reporter.
0.167

Using the record for AUUUUGGUUGAAGGAUAUUCUCCCAUCGACGCGAUAAGAUACUUUGGAAGGUUUGCAGUGAUGUUGGAAGAAGGUCAAAGUUGUA [theeternabot_exclusion_KL_FMN_B_22] , report its apparent KD of K4 kissing-loop reporter.
0.523

Using the record for GCCAUCUACUAAGGAUAUUAAGUCAAUAUUUGUGGUGCCAUCUGUCGUUCAGGGCAGUGAUGUUGCUAAGAAGGUAGUCUGUCGG [theeternabot_exclusion_KL_FMN_B_39] , report its apparent KD of K4 kissing-loop reporter.
0.407
